Would you mind telling me the reported Ki of each entry?
TEST SYSTEM: delta-opioid receptor (human) (Homo sapiens)
Construct: Eurofins Cerep (France)
Sequence (P41143 whole entry): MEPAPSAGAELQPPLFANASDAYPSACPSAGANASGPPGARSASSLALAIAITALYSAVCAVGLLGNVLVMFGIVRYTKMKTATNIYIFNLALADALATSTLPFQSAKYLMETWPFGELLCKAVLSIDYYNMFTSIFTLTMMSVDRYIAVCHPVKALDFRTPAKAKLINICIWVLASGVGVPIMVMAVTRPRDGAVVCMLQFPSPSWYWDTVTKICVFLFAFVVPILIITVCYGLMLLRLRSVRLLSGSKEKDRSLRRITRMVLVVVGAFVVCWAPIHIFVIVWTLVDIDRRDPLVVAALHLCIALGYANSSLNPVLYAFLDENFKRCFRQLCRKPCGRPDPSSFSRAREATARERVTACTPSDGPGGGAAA
PROCEDURE DETAILS: Human delta-opioid receptor (agonist radioligand [3H]-DADLE) binding assay
PROTOCOL CONDITIONS: [3H]-DADLE displacement; read-out: binding affinity to delta-opioid receptor (Ki)
One number for each entry, in nM.

* C=CCN1CC[C@]23c4c5ccc(O)c4O[C@H]2[C@@H](OCc2cn(CCNCCCCCCOc4cc(OCCCc6c(C)n[nH]c6C)cc(C(=O)O)c4)nn2)CC[C@@]3(O)[C@H]1C5 [AG10-L2-Nal] | 5.5

Turning to the following compound.
Q: I'd like to know its Ki. The compound in question is COc1ccc2c3c1O[C@H]1[C@@H](OCc4cn(CCNCCCCCCOc5cc(OCCCc6c(C)n[nH]c6C)cc(C(=O)O)c5)nn4)CC[C@@]4(O)[C@@H](C2)N(C)CC[C@]314 [AG10-L2-Oxy]
Result: 410

---

Would you mind telling me the reported log10 of AUC(0-inf) of each entry?
PROCEDURE DETAILS: in vivo
PROTOCOL CONDITIONS: male, Sprague Dawley, rat, sc, 16 umol/kg
Please be aware that the numbers have been log10-transformed from AUC(0-inf) in µM·h.

These solved cases illustrate the format of a correct answer.
• COc1ccc2c3c1O[C@H]1C(=O)CC[C@@]4(O)[C@@H](C2)N(C)CC[C@]314 [Oxycodone, reference compound] = 0.69
• C=CCN1CC[C@]23c4c5ccc(O)c4O[C@H]2C(=O)CC[C@@]3(O)[C@H]1C5 [Naloxone, reference compound] = 0.25
• COc1ccc2c3c1O[C@H]1[C@@H](OCc4cn(CCNCCCCCCOc5cc(OCCCc6c(C)n[nH]c6C)cc(C(=O)O)c5)nn4)CC[C@@]4(O)[C@@H](C2)N(C)CC[C@]314 = 1.41
• C=CCN1CC[C@]23c4c5ccc(O)c4O[C@H]2[C@@H](OCCOCCOCCOCCOCCOCCOCCOC)CC[C@@]3(O)[C@H]1C5 [Naloxegol, reference compound] = 0.57

Turning to the following molecule.
Q: I'd like to know its log10 of AUC(0-inf). The molecule in question is `C=CCN1CC[C@]23c4c5ccc(O)c4O[C@H]2[C@@H](OCc2cn(CCNCCCCCCOc4cc(OCCCc6c(C)n[nH]c6C)cc(C(=O)O)c4)nn2)CC[C@@]3(O)[C@H]1C5`
Result: 1.25

---

TEST SYSTEM: purified human TTR (Homo sapiens)
PROCEDURE DETAILS: Fluorescence polarization (FP) binding assay, ligands to TTR in buffer
PROTOCOL CONDITIONS: log [nM] inhibitor 3.699
Would you mind telling me the reported % Fluorescence polarization (mean) of each entry?
One number for each entry, in %.

These solved cases illustrate the format of a correct answer.
• C=CCN1CC[C@]23c4c5ccc(O)c4O[C@H]2[C@@H](OCc2cn(CCNCCCCCCOc4cc(OCCCc6c(C)n[nH]c6C)cc(C(=O)O)c4)nn2)CC[C@@]3(O)[C@H]1C5 [AG10-L2-Nal] = 31.550
• COc1ccc2c3c1O[C@H]1[C@@H](OCc4cn(CCNCCCCCCOc5cc(OCCCc6c(C)n[nH]c6C)cc(C(=O)O)c5)nn4)CC[C@@]4(O)[C@@H](C2)N(C)CC[C@]314 [AG10-L2-Oxy] = 35.010
• C=CCN1CC[C@]23c4c5ccc(O)c4O[C@H]2[C@@H](OCc2cn(CCOCCOCCNCCCCCCOc4cc(OCCCc6c(C)n[nH]c6C)cc(C(=O)O)c4)nn2)CC[C@@]3(O)[C@H]1C5 [AG10-L1-Nal] = 44.570

Q: I'd like to know its % Fluorescence polarization (mean). The molecule in question is Cc1n[nH]c(C)c1CCCOc1cc(OCCCCCCN)cc(C(=O)O)c1 [Compound 1]
Result: 2.100
